- System: SF-539 CNS
- ASSAY OVERVIEW: NCI-60 one-dose screen, 48 h (100 = growth as untreated, 0 = no growth, -100 = all killed)
- CONDITIONS USED: 10 µM unless noted
The panel holds about 83,000 compounds, 20% with a hit somewhere; the sample as a whole holds those more often.
Recorded measurements of growth, one per entry
Field format: number, assumed %, no unit text.

> print(dat)
                                 compound  experimental.readout  unit.of.measure  value.observed
1  Clc1ccc(Nc2nnc(-c3ccc4c(c3)OCO4)o2)cc1                growth                %             104

// growth value for O=C1c2cc(Cl)ccc2Oc2cc([N+](=O)[O-])ccc2N1c1ccc(F)cc1F : 96.7

// growth value for O=C1/C(=C/c2ccc(O)cc2)COc2ccc(O)cc21 : 98.1

// growth value for Nc1ccc(-c2ccc(-c3ccccc3N)c3[nH]c4ccccc4c23)cc1 : 28

// growth value for O=C(NC1CCN(Cc2ccccc2)CC1)c1cc2nc(-c3ccc(Cl)s3)cc(C(F)(F)F)n2n1 : 2.96

// growth value for COC(=O)c1cc2c(n1Cc1ccccc1)-c1oncc1CCC2 : 69.1

// growth value for O=C(CCc1nnc2sc(COc3ccccc3)nn12)c1nc2ncccc2[nH]1 : 100

---

- Tested on: NCI/ADR-RES ovarian
- ASSAY OVERVIEW: NCI-60 one-dose screen, 48 h (100 = growth as untreated, 0 = no growth, -100 = all killed)
- CONDITIONS USED: 10 µM unless noted
This is part of a sample that, as a whole, favours compounds with a hit. Of some 83,000 tested, about 20% had one in any assay.
Respond with MET for growth values of 80% and above, NOT MET for values below.

// below: answered compounds
> print(dat)
                                   compound       assayed.target  assigned.category
1  O=C(Nc1nc2c(s1)CCc1c-2c(Br)n(Cc2ccccc2)c1Br)c1ccccc1  NCI/ADR-RES ovarian            NOT MET
2  COc1cc(C(=O)Nc2ccc(-c3nc4ccccc4[nH]3)cc2)cc(OC)c1OC  NCI/ADR-RES ovarian            NOT MET
3             O=NN(Cc1cccnc1)C(=O)NC1CCCCC1  NCI/ADR-RES ovarian                MET

[ask] Please tell me: is the compound NC(=O)CSc1nc(-c2ccc(F)cc2)cc(-c2ccco2)n1 at or over 80% in terms of growth?
[reply] MET

[ask] Please tell me: is the compound COc1ccc(-c2nc(-c3ccccn3)c(-c3ccccn3)n2CC(C)C)cc1OC1CCCC1 at or over 80% in terms of growth?
[reply] NOT MET

---

- Test system: PC-3 prostate
- ASSAY OVERVIEW: NCI-60 one-dose screen, 48 h (100 = growth as untreated, 0 = no growth, -100 = all killed)
- CONDITIONS USED: 10 µM unless noted
This is part of a sample that, as a whole, favours compounds with a hit. Of some 83,000 tested, about 20% had one in any assay.
Respond with rule met for growth values of 70% and above, rule not met for values below.

> print(dat)
                                   compound  assigned.category
1  CN1C(=O)N(C)C2Nn3c(s/c(=C\c4ccc(Cl)cc4Cl)c3=O)=NC21 (stereo not drawn)       rule not met
2               NS(=O)(=O)c1ccc(CCN=C=S)cc1       rule not met
3  CN1CCN(Cc2ccc(NC(=O)c3cncc(C#Cc4nc(N)nc5[nH]ncc45)c3)cc2C(F)(F)F)CC1           rule met
4              COc1ccccc1C(=O)/C=C/c1ccccc1           rule met
5  CCc1ccc(CNCC(O)c2ccccc2)cc1 (stereo not drawn)       rule not met
6  C=CCN1C(=O)/C(=c2\sc3n(c2=O)NC2C(N=3)N(CC)C(=O)N2CC)c2ccccc21 (stereo not drawn)       rule not met

[ask] Please tell me: is the compound S=C1CCCC(=S)N1 at or over 70% in terms of growth?
[reply] rule met
